Data origin, for the record: PubChem BioAssay AID1645848

# conditions: buffer; pH 7.4; 6.0 h; 150.0 µM
Respond with yes (1) for solubility kinetic values of 9 µg/mL and above, no (0) for values below.

# compound, classification
records = [
    ("Cc1cc(NS(=O)(=O)c2ccc(NC(=O)c3oc4ccccc4c3C)cc2)nc(C)n1", "no (0)"),
    ("Cc1ccc(Nc2nc(C)c(NC(=O)c3ccc(C)cc3)c(Nc3ccc(C)cc3)n2)cc1", "no (0)"),
    ("O=C(NCCCc1ccccc1)C1CCN(c2nc(-c3ccc(Br)cc3)cs2)CC1", "no (0)"),
    ("CN(C)CCNC(=O)c1nc2nc(-c3ccccc3)c(-c3cccc(Cl)c3)cc2n1C", "yes (1)"),
    ("O=C(Nc1cn[nH]c1-c1nc2ccc(CN3CCOCC3)cc2[nH]1)NC1CC1", "yes (1)"),
]

Input: Would you say Br.CC(Cc1ccc(O)cc1)NCC(O)c1cc(O)cc(O)c1 (stereo not given) shows solubility kinetic at minimum 9 µg/mL?
Output: yes (1)

Input: Proceed to O=[S+]([O-])(Nc1ccc(N2CCNCC2)cc1)c1ccc(NCc2cccc(Cl)c2O)cc1
Output: yes (1)

Input: Next entry: COc1ccc(NC(=O)c2ccccc2)cc1S(=O)(=O)Nc1ccc(Br)cc1
Output: no (0)
